Tested on: IRAK4
Conditions: concentration: 1 μM, replicates: in singlicate; n = 1;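 also: KINOMEscan kinase panel screen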
I'd be grateful if you could share measured %Inh for these entries.
Numbers only, in %.

>>> test_value("Fc1ccc(-c2ncn(CCCNCc3ccccc3)c2-c2ccncc2)cc1")
19

Give %Inh for each listed item.
1. C[C@H]1CC[C@@H](C(=O)Nc2ccccc2)CN1c1cc(-c2ccc3c(N)n[nH]c3c2)nc(N)n1
2. O=C(Nc1ccccc1F)NC1CCN(c2ccnc(Nc3ccc(F)cc3)n2)C1 (centres unmarked)
3. N#Cc1ccc(Oc2ccc(Nc3ncnc4cc[nH]c34)cc2Cl)cc1
4. OCCOCCn1ccc2ncnc(Nc3ccc(Oc4cccc(Cl)c4)c(Cl)c3)c21
5. O=C(Nc1n[nH]c2nc(-c3ccco3)c(Br)cc12)c1ccc(CN2CCCC2)cc1.O=C(O)[C@H](O)[C@@H](O)C(=O)O
6. Cc1ccc(O)cc1Nc1cc(C(F)(F)F)nc2ccc(-c3ccncc3)cc12
7. C[C@@H]1CCN(C(=O)CO)C[C@@H]1N(C)c1ncnc2[nH]ccc12
8. COC(=O)c1c(-c2ccccc2)c2cc(Cl)ccc2c(=O)n1Cc1ccc(S(C)(=O)=O)cc1

-- reply
[0, 14, 13, 0, 0, 0, 0, 9]

For each entry beneath this line, provide reported %Inh.
1. O=C(c1ccc(-c2cc(-c3c[nH]nc3-c3ccccn3)ccn2)cc1)N1CCCC1
2. COc1ccc(-c2oc3ncnc(N)c3c2-c2ccc(OC)cc2)cc1
3. Nc1nc(-c2ccc3c(N)n[nH]c3c2)cc(N2CCC[C@@H](C(=O)Nc3ccccc3)C2)n1.O=C(O)C(F)(F)F.O=C(O)C(F)(F)F

-- reply
0
58
0

For each entry beneath this line, provide reported %Inh.
1. Fc1cccc(COc2ccc(Nc3ncnc4cc[nH]c34)cc2Cl)c1
2. c1ccc(-c2ccc3c(-c4ccnc(Nc5ccc6c(c5)OCCO6)n4)cnn3n2)cc1
3. COc1ccc(Nc2nccc(N3CCC(NC(=O)Nc4ccc5c(c4)OCO5)C3)n2)cc1 (centres unmarked)
4. Cl.O=S(=O)(c1cccc(F)c1)c1ccc(Nc2ncnc3cc(Br)sc23)cc1Cl
5. Cl.Fc1ccccc1COc1ccc(Nc2ncnc3ccc(-c4nnc(C(F)(F)F)o4)cc23)cc1Cl

-- reply
1. 4
2. 6
3. 6
4. 0
5. 0

====

Tested on: CAMK1
Settings: concentration: 1 μM, replicates: in singlicate; n = 1
Consider the following compounds; for each one, report its %Inh.
Numbers only, in %.

>>> test_value("CC(C)(C)OC(=O)NC1CCCN(c2cc(-c3ccc4c(N)n[nH]c4c3)nc(N)n2)C1 (stereo not shown) [GSK2286096]")
16
>>> test_value("c1ccc(-c2ccc3c(-c4ccnc(Nc5ccc6c(c5)OCCO6)n4)cnn3n2)cc1 [GW818941]")
29
>>> test_value("Nc1nc(-c2ccc3c(N)n[nH]c3c2)cc(N2CCC[C@@H](C(=O)Nc3ccccc3)C2)n1.O=C(O)C(F)(F)F.O=C(O)C(F)(F)F [GSK2288359]")
5

// next entry
-- ask GET /values?readout=%Inh&system=CAMK1&item= FC(F)(F)c1cc(Nc2nccc(-c3c(-c4ccc(Cl)cc4)nn4ncccc34)n2)ccc1Cl [GW829351]
-- reply 0

====

Exercise: for every item that follows, state its recorded %Inh.
Tested on: BRSK1
Conditions: concentration: 1 μM, replicates: in singlicate; n = 1
Numbers only, in %.

Respectfully, I request %Inh for each entry included below.
1. Fc1ccc(-c2ncn(CCCNCc3ccccc3)c2-c2ccncc2)cc1
2. Cl.Cl.c1ccc(-c2cc3ccncc3cc2OC2CCNCC2)cc1 [GSK1122999]
3. Clc1cccc(-c2nc(Nc3ccncc3)c3ccccc3n2)c1 [GW873004]
4. Cl.c1ccc(Cn2ccc3cc(Nc4ncnc5ccccc45)ccc32)cc1 [GW275568]
5. CSc1ccc(NC2=C(c3ccccc3Cl)C(=O)NC2=O)cc1 [SB-342411]

-- reply
[0, 17, 1, 0, 0]

====

Test system: GAK
Conditions: concentration: 1 μM, replicates: in singlicate; n = 1
property label: %Inh (%)
One number for each entry, in %.

Below, 8 compounds whose answers are already recorded.
>>> test_value("Clc1cccc(-c2nc(Nc3ccncc3)c3ccccc3n2)c1 [GW873004]")
3
>>> test_value("CC(C)N1CCC(n2cnc(-c3ccc(F)cc3)c2-c2ccnc(N)n2)CC1 [SB-223132]")
2
>>> test_value("OCCOCCn1ccc2ncnc(Nc3ccc(Oc4cccc(Cl)c4)c(Cl)c3)c21")
0
>>> test_value("CC(=O)Nc1n[nH]c2ncc(-c3ccccc3)cc12 [SB-548492]")
31
>>> test_value("CSc1ccc(NC2=C(c3ccccc3Cl)C(=O)NC2=O)cc1 [SB-342411]")
14
>>> test_value("Cn1cc(-c2ccc3c(c2)CCN3C(=O)Cc2cccc(C(F)(F)F)c2)c2c(N)ncnc21 [GSK2606414]")
3
>>> test_value("Nc1nccc2scc(-c3ccc4c(c3)CCN4C(=O)Cc3cc(F)ccc3F)c12 [GSK2587663]")
0
>>> test_value("Cl.c1ccc(Cn2ccc3cc(Nc4ncnc5ccccc45)ccc32)cc1 [GW275568]")
25

Let us examine a further case.
-- ask // fetch GAK %Inh for CNc1nccc(-c2c(-c3ccc(F)cc3)ncn2CCCN2CCOCC2)n1 [SB-222516]
-- reply 0

====

Tested on: CAMK1
Conditions: concentration: 1 μM, replicates: in singlicate; n = 1
# label = y if %Inh >= 4% else n

Some solved entries appear below for comparison.
>>> answer_label("O=C(CCO)NCCn1ccc2ncnc(Nc3ccc(Oc4cccc(C(F)(F)F)c4)c(Cl)c3)c21")
"n"
>>> answer_label("Cc1ccc(NC(=O)c2cccc(C#N)c2)cc1-c1ccc(C(=O)Nc2ccncc2)cc1")
"y"
>>> answer_label("Clc1ccc(-c2cc(-c3c[nH]nc3-c3ccccn3)ccn2)cc1")
"n"
>>> answer_label("O=C(c1ccc(-c2cc(-c3c[nH]nc3-c3ccccn3)ccn2)cc1)N1CCCC1")
"y"
>>> answer_label("CC(C)(C)c1ccc(-n2cnc3c(N)ncnc32)cc1")
"y"
>>> answer_label("Clc1cc(Nc2ncnc3cc[nH]c23)ccc1OCc1ccccn1")
"y"
>>> answer_label("COc1ccc(Nc2nccc(N3CCC(NC(=O)c4cccc(NC(C)=O)c4)C3)n2)cc1 (stereo not drawn)")
"y"

# evaluate next
-- ask Assess whether reported %Inh for `Fc1cccc(COc2ccc(Nc3ncnc4cc[nH]c34)cc2Cl)c1` sits at 4% or higher.
-- reply y

====

Tested on: MAST1
Conditions: concentration: 1 μM, replicates: in singlicate; n = 1
# note: boundary value 6% maps to N; %Inh below it maps to Y

>>> answer_label("Cn1ccc2ncnc(Nc3ccc(Oc4cccc(Cl)c4)c(Cl)c3)c21")
"Y"
>>> answer_label("Fc1ccc(Nc2nccc(-c3c(-c4ccc(Cl)cc4)nn4ncccc34)n2)cc1F [GW829058]")
"N"
>>> answer_label("CS(=O)(=O)CCNCc1nc(-c2ccc3ncnc(Nc4ccc(OCc5cccc(F)c5)c(Cl)c4)c3c2)cs1.Cl [GW583340]")
"Y"
>>> answer_label("CCn1c(-c2ccncc2)nc2cnccc21 [SB-735216]")
"N"

-- ask # strict comparison: is reported %Inh < 6%? input = FC(F)(F)c1ccc(-c2nn3ncccc3c2-c2ccnc(Nc3cccc(C(F)(F)F)c3)n2)cc1 [GW828205]
-- reply N

-- ask Likewise for COc1ccc(-c2oc3ncnc(N)c3c2-c2ccc(OC)cc2)cc1 [SB-589132] ?
-- reply N

-- ask `Cn1ccc2ncnc(Oc3ccc(NC(=O)Nc4cccnc4)c(Cl)c3)c21` ?
-- reply Y

-- ask Also need Oc1ccc2ncnc(Nc3ccc(OCc4ccccc4)cc3)c2c1 [GI262866] , thanks.
-- reply Y

====

I'd appreciate it if you could supply %Inh values for the items below.
Test system: ABL1-phosphorylated
Conditions: concentration: 1 μM, replicates: in singlicate; n = 1
One number for each entry, in %.

>>> test_value("O=C(Nc1ccccc1F)NC1CCN(c2ccnc(Nc3ccc(F)cc3)n2)C1 (stereo not shown)")
0
>>> test_value("CSc1ccc(NC2=C(c3ccccc3Cl)C(=O)NC2=O)cc1")
0
>>> test_value("COc1ccc(Nc2nccc(N3CCC(NC(=O)c4cccc(NC(C)=O)c4)C3)n2)cc1 (stereo not shown)")
0
>>> test_value("O=C(Nc1n[nH]c2nc(-c3ccco3)c(Br)cc12)c1ccc(CN2CCCC2)cc1.O=C(O)[C@H](O)[C@@H](O)C(=O)O")
36
>>> test_value("Fc1cccc(COc2ccc(Nc3ncnc4nn5ccccc5c34)cc2Cl)c1")
0

Would you be so kind as to report %Inh for each listed record?
1. Nc1nc(-c2ccc3c(N)n[nH]c3c2)cc(N2CCCCC2)n1
2. Nc1nc(-c2cccnc2)c(-c2ccnc3ccccc23)s1
3. COc1cc2c(Nc3cccc(NC(=O)c4ccccc4)c3)ncnc2cc1OCCCN1CCOCC1
4. CC(C)(C)c1ccc(-n2cnc3c(N)ncnc32)cc1
5. CCc1nc(-c2cccc(N(C)S(=O)(=O)c3ccccc3)c2)c(-c2ccnc(Nc3ccc(N4CCN(C(C)=O)CC4)nc3)n2)s1
6. O=c1cc(N2CCOCC2)nc2n(Cc3cccc(Cl)c3)ccn12

-- reply
1: 0; 2: 0; 3: 0; 4: 0; 5: 7; 6: 7
